meta.source: PubChem BioAssay (NCI)

test system: NCI-H522 lung; experiment: NCI tumour cell line growth inhibition, 48 h
Classify as follows. Reported TGI greater than or equal to 0.4 µM: T. Reported TGI below: F.

compound	classAssignment
CN(C)CCCC1(c2ccc(F)cc2)OCc2cc(-c3cccc4[nH]ccc34)ccc21 (stereo not drawn)	T

Quick check, TGI >= 0.4 µM? `N#Cc1nc2c(S(=O)(=O)c3ccc(Cl)cc3)c(N)n(Nc3cccc(Cl)c3)c2nc1C#N`
T

====

tested on: CCRF-CEM leukemia; experiment: NCI tumour cell line growth inhibition, 48 h
attributeMeasured: TGI

The examples below pair each entry with its known result.
>>> print(df.to_string())
                                   compound    systemundertest     result
0  CC1(C)CC(=O)C2=C(C1)C(c1ccccc1Cl)C1C(=O)CC(C)(C)CC1(O)O2 (configuration not stated)  CCRF-CEM leukemia  > 94.8 µM
1                       NCCN1CCCCCc2ccccc21  CCRF-CEM leukemia    > 10 µM
2  CC1CC(N2CCOCC2)=Nc2ccccc2N1C (configuration not stated)  CCRF-CEM leukemia   > 100 µM

Let us examine a further case.
The reported value for Cc1ccc2c(c1C)C(=O)C1(Cc3cc4c(cc3C1=O)CCC4)C2 (configuration not stated) in terms of TGI is > 100 µM

====

system: MOLT-4 leukemia; assay: NCI tumour cell line growth inhibition, 48 h; in the data active = GI50 below about 0.43 µM; inactive = the rest
Hello, when you answer, please use one of the following outcomes: Yes (active), No (inactive)

Take a look at these entries with their results.
In [3]: df
Out[3]:
                                   compound  classassignment
0  COc1cc2c(cc1Nc1nc(N3CCc4ccccc43)c3cc[nH]c3n1)N(C(=O)CN(C)C)CC2               No
1  N#Cc1nc2c(S(=O)(=O)c3ccc(Cl)cc3)c(N)n(Nc3cccc(Cl)c3)c2nc1C#N              Yes
2  COc1cc2nc(-c3ccc(Cl)cc3)cc(OCCCN3CCOCC3)c2cc1OC               No
3  COc1ccc2c(c1)c(-c1nc(-c3c[nH]c4ncccc34)cs1)cn2CCCN1CCOCC1               No
4  N#CC1c2ccccc2C=CN1C(=O)CCCl (configuration not stated)               No
5  CCCCCOc1ccc(/C=N/Nc2cc(C)nc3ccc(Cl)cc23)cc1               No

Recorded call for CC(=O)ON1CCCC(P(=O)(OCOC(=O)C(C)(C)C)OCOC(=O)C(C)(C)C)C1=O (configuration not stated) ?
No

Recorded call for `COc1ccc2c(c1)C(=O)c1c-2c(Nc2ccccc2OC)nc2ccccc12` ?
No

Recorded call for Nc1ncnc2c1N=C(c1ccc3c(c1)OCO3)CC(c1ccc(Cl)cc1)N2 (configuration not stated) ?
No

====

tested on: NCI/ADR-RES ovarian; assay: NCI tumour cell line growth inhibition, 48 h
attributeMeasured: GI50

The examples below pair each entry with its known result.
In [3]: df
Out[3]:
                                givensmiles      systemundertest  attributemeasured    result
0         CCNc1nc(O)c(/C=C2\C=Nc3ncccc32)s1  NCI/ADR-RES ovarian               GI50   10.5 µM
1  CNC(=O)c1ncccc1Nc1nc(Nc2cc3c(cc2OC)CCCN3C(=O)CN(C)C)nc2[nH]ccc12  NCI/ADR-RES ovarian               GI50  0.724 µM
2  Cn1c([N+](=O)[O-])cnc1C=C1C(=O)c2ccccc2C1=O  NCI/ADR-RES ovarian               GI50   5.34 µM
3  COc1ccc(C(=O)c2cc(OC)c(OC)c(OC)c2OC)cc1O  NCI/ADR-RES ovarian               GI50   1.97 µM

Let us examine a further case.
The reported value for `COc1ccc2c(c1)c(-c1nc(-c3c[nH]c4ncccc34)cs1)cn2CCCN1CCOCC1` in terms of GI50 is 3.02 µM

====

system: PC-3 prostate; experiment: NCI tumour cell line growth inhibition, 48 h
Below, each entry is listed with its recorded TGI.
The reply should be a number in µM, with the unit left off.

The examples below pair each entry with its known result.
compound	TGI (µM)
Cc1c(C)n(-c2ccccc2)c2nc(S(C)=O)nc(S(C)=O)c12 (stereo not given)	19.7
O=C1/C(=C/c2ccc(Cl)c(Cl)c2)CN(C(=O)CCN2CCC(=NO)CC2)C/C1=C\c1ccc(Cl)c(Cl)c1	1.66

Let us examine a further case.
The reported value for O=C(ON=C1c2ccccc2C(Br)C(Br)c2ccccc21)c1ccccc1 (stereo not given) in terms of TGI is 40.2

====

Below, each entry is listed with its recorded TGI.
tested on: HCC-2998 colon; experiment: NCI tumour cell line growth inhibition, 48 h
The reply should be a number in µM, with the unit left off.

>>> print(df.to_string())
                                   compound  recordednumber
0  Nc1ncnc2c1N=C(c1ccc3c(c1)OCO3)CC(c1ccc(Cl)cc1)N2 (stereo unspecified)              35
1                   COC(=O)CC(=O)OSc1ccccc1              95

Measured TGI for this entry `CN1CSC(=S)N(c2cccc(C(F)(F)F)c2)C1` on HCC-2998 colon: 32.9

====

system: T-47D breast; assay: NCI tumour cell line growth inhibition, 48 h
attributeMeasured: GI50

The reported value for `COc1ccc2c(N)ncc(C#Cc3cc(C(=O)Nc4ccc(CN5CCN(C)CC5)c(C(F)(F)F)c4)cnc3C)c2c1` in terms of GI50 is 13.5 µM

The reported value for `COc1ccc(OC)c(/C=C/c2nc(=S)n(-c3ccc(Cl)cc3)[nH]2)c1` in terms of GI50 is 4.51 µM

The reported value for `CC1(C)N=C(N)N=C(N)N1c1ccc(CCC(=O)Nc2ccc(S(=O)(=O)F)cc2)cc1` in terms of GI50 is 16.2 µM

====

Below, each entry is listed with its recorded TGI.
test system: MOLT-4 leukemia; assay: NCI tumour cell line growth inhibition, 48 h

In [3]: df
Out[3]:
                                   compound  attributemeasured    result
0  Cc1nn(-c2ccc(Cl)cc2)c2ncnc(N/N=C/c3ccccc3O)c12                TGI  > 100 µM

Let us examine a further case.
The reported value for `CC1(C)OC[C@@H]([C@@]2(CO[Si](c3ccccc3)(c3ccccc3)C(C)(C)C)CC=CC(=O)O2)O1` in terms of TGI is > 100 µM

====

test system: OVCAR-3 ovarian; assay: NCI tumour cell line growth inhibition, 48 h
attributeMeasured: GI50

The examples below pair each entry with its known result.
                                givensmiles  systemundertest   result
0   COc1ccc2sc3c(NCCCN)nc4ccccc4c3c(=O)c2c1  OVCAR-3 ovarian  1.77 µM
1  CC(C)(CO)CNC(=O)c1ccc2[nH]c(O)c(N=Nc3ccc(S(N)(=O)=O)cc3)c2c1  OVCAR-3 ovarian  > 25 µM
2  O=C1NC(=N[C@@H](CO)c2ccccc2)S/C1=C\c1ccc2ncccc2c1  OVCAR-3 ovarian  14.8 µM

The reported value for `O=C1C=C[C@H](O)[C@@]2(CO)O[C@@H]12` in terms of GI50 is 3.31 µM

The reported value for `O=C1/C(=C/c2ccc(Cl)c(Cl)c2)CN(C(=O)CCN2CCC(=NO)CC2)C/C1=C\c1ccc(Cl)c(Cl)c1` in terms of GI50 is 0.574 µM

The reported value for `O=C1c2cccc(Oc3ccccc3)c2C(=O)c2cccc(Oc3ccccc3)c21` in terms of GI50 is > 100 µM

====

test system: SR leukemia; experiment: NCI tumour cell line growth inhibition, 48 h; in the data active means GI50 below about 0.43 µM; inactive means the rest
Hello, when you answer, please use one of the following outcomes: true (1) = active, false (0) = inactive

Take a look at these entries with their results.
compound	systemUnderTest	classAssignment
Nc1ncnc2c1N=C(c1ccc3c(c1)OCO3)CC(c1ccc(Cl)cc1)N2 (centres undefined)	SR leukemia	false (0)
CC1(C)N=C(N)N=C(N)N1c1ccc(CCC(=O)Nc2ccc(S(=O)(=O)F)cc2)cc1	SR leukemia	true (1)
CCNc1nc(O)c(/C=C2\C=Nc3ncccc32)s1	SR leukemia	false (0)

Kindly consider the entry below.
Recorded call for `CN[C@@H](C)C(=O)N[C@H]1CN(S(=O)(=O)c2cccc(S(=O)(=O)N3CC[C@H]4CC[C@@H](C(=O)NC(c5ccccc5)c5ccccc5)N4C(=O)[C@@H](NC(=O)[C@H](C)NC)C3)c2)CC[C@H]2CC[C@@H](C(=O)NC(c3ccccc3)c3ccccc3)N2C1=O` ?
false (0)
